- measurement.protocol: soluble on expression in E. coli; label from the status in PepcDB or PDB records
assay.endpoint: soluble on expression in E. coli

1. MSLAYISLKSNLENPKYSLNVAHLYGDLMNTYGDNGNILMLKYVGEKLGAEMTFNIVSLGDTFAKEDYDLVFWGGGQDYEQEIIADQSLIDLSAPLKDYIESEKPLLAICGGYQMLGQYYVNSEGTKIQGTGILGHYTENLRTDRFIGDIETHNEEFGETYYGFENHSGITYLSDDEKPLGTVVYGGGNNPDDQTEGLIYKNTFGTYFHGPILSRNARLAYRLVTTALYQKYGEEIQLPAFEEILADEDKGQQIGDLKRKVEKEGHHHHHH ... soluble
2. MMDNNITETEMKVGHPPANKVGGRRVVNRKDRKNSDSNDNANSEGSDEVVREIIDYDLPAKMERSYPTEAVKKVHEKPMPAIQPVHINRDANSGVHRFQPRKQTH ... soluble
3. MGSDKIHHHHHHMEVEIVERNAFTAVGKKRTFSVENDAQKEKISQFWQEVNANGDAERINELAEFATIDGILGVCQMNGDQMDYYIAIESELTPPADMEKLTIPASKWAIFKSVGPLPNAIQKVWEYIYGEWFQTCNYTHGNAPELEVYTEGDTTAVDYYSEVWIPVVEKD ... not soluble
4. MGSDKIHHHHHHMDFDTGRRIDRRAIPADAVEGTWTASDGHPIRRIDWPGHSEPDAPTAPRGSLLFLPGRGDFYEKYLESLDYWHCEGWRVTALDWRGQAGSGRLSSDPMTGHVPDFGLWLDDLGAFWTDWVRDTPGPHVVVGHSMGGHLVLRALAERRIDPAAVVLSAPMLGFLTPGPNRVLHRVAEFMCRIGDPERSAWKSSEKPGATTAARNTLLTHDEARYGDETHWKTVRPELAMGPGSWRWVERAYASMLVLDRPGLLEAVDVPVLLLAARHDGLVSWRAIERAARRLPRAQLMTWGREARHELLREADPVRDKVMHAIDDFLDRLAPPTGEDAPA ... not soluble
